- Tested on: T. brucei brucei BSF
- Experimental Protocol: T. brucei BSF viability, resazurin reduction
- Assay type: cell-based, Trypanosoma brucei brucei
- Measurement Context: dose response, triplicate; ± SD (Table 2) / ± SE (S3 Table); read-out: EC50 T. brucei BSF
Value Type: pEC50
Quick note: pEC50 means taking -log10 of the concentration in moles per liter.

Ask | # value lookup — system T. brucei brucei BSF, readout pEC50, item NCc1ccc(Oc2ccc3c(c2)COB3O)cc1 [AN3057, reference compound]
Reply | 8.30

* * *

- Experimental Protocol: Cytotoxicity assay J774, resazurin reduction
- Assay type: cell-based, murine
- Measurement Context: mouse, J774 macrophage cells; cytotoxicity, 2.5 µM, 72 h; read-out: Residual viability, J774 (2.5 µM)
Please go through the items and note down their viability at 72 h, 2.5 µM.
Numbers only; they are read as %.

Ask | Fill in: viability at 72 h, 2.5 µM of C[C@@H]1[C@H](O)[C@@H](C)/C=C/C=C/C=C/C=C/C=C/C=C/C=C/[C@H](O[C@@H]2O[C@H](C)[C@@H](O)[C@H](N)[C@@H]2O)C[C@@H]2O[C@](O)(C[C@@H](O)C[C@@H](O)[C@H](O)CC[C@@H](O)C[C@@H](O)CC(=O)O[C@H]1C)C[C@H](O)[C@H]2C(=O)O [AmB, amphotericin B, reference compound] is ___
Reply | 101

Ask | Next entry: CC[C@@H](C)[C@H](c1nc2ccccc2n1Cc1cn(-c2c(F)c(F)c(F)c(F)c2F)nn1)N1C(=O)c2ccc(C)cc2C1=O [PHT-80]
Reply | 124

Ask | Same thing, different compound: CC[C@@H](C)[C@H](c1nc2ccccc2n1Cc1cn(-c2c(F)c(F)c(F)c(F)c2F)nn1)N1C(=O)c2ccccc2C1=O [PHT-41]
Reply | 96.1

Ask | Also CC[C@@H](C)[C@H](c1nc2ccccc2n1Cc1cn(-c2ccc(C(F)(F)F)cc2)nn1)N1C(=O)c2ccccc2C1=O [PHT-39] , if possible.
Reply | 98.3

* * *

- Experimental Protocol: Cytotoxicity assay J774, resazurin reduction
- Type: cell-based, murine
- Measurement Context: mouse, J774 macrophage cells; 2.5 µM; read-out: viability, J774 (2.5 µM)
Value Type: viability at 72 h, 2.5 µM (%)
Your answer is read as %, so omit the unit and give the number.

Ask | # lookup: viability at 72 h, 2.5 µM of CC(C)(C)OC(=O)NC(Cc1ccccc1)C(O)CNc1ccc(OC(F)(F)F)cc1 (centres unmarked)
Reply | 96.7

Ask | Moving on to COc1ccc(NC[C@H](O)[C@@H](N)Cc2ccccc2)cc1
Reply | 93.9

Ask | Okay, and Cc1ccc(NC[C@H](O)[C@@H](N)Cc2ccccc2)cc1 ?
Reply | 95.7

Ask | // repeat for CC(=O)c1ccc(NC[C@H](O)[C@@H](N)Cc2ccccc2)cc1 and report
Reply | 95.4

Ask | Likewise for O=C(Cc1cccc(C(F)(F)F)c1)NC(Cc1ccccc1)C(O)CN1CCN(Cc2ccccc2)CC1 (centres unmarked) ?
Reply | 102

Ask | Item: N[C@@H](Cc1ccccc1)[C@@H](O)CNc1cccc(C(F)(F)F)c1
Reply | 94.9

Ask | Subsequent entry: N[C@@H](Cc1ccccc1)[C@@H](O)CNc1ccc(F)cc1F
Reply | 96.3

Ask | Moving on to the next compound: CC(C)(C)OC(=O)NC(Cc1ccccc1)C(O)CNc1cccc(C(F)(F)F)c1 (centres unmarked)
Reply | 75.1

Ask | Now consider O=C(Cc1ccc2ccccc2c1)NC(Cc1ccccc1)C(O)CN1CCN(Cc2ccccc2)CC1 (centres unmarked) .
Reply | 106

Ask | Then this compound: CC(C)(C)c1ccc(NC[C@H](O)[C@@H](N)Cc2ccccc2)cc1
Reply | 96.6

Ask | What do you get for N[C@@H](Cc1ccccc1)[C@@H](O)CNc1ccc(F)cc1 ?
Reply | 94.6

* * *

Would you kindly list viability at 25 µM for each of these molecules?
- Test system: T. brucei brucei BSF
- Experimental Protocol: T. brucei BSF viability, resazurin reduction
- Assay type: cell-based, Trypanosoma brucei brucei
- Measurement Context: Trypanosoma brucei, 25 µM; read-out: viability, T.brucei (25 µM)
Numbers only here, please. The scale is %.

Ask | Need viability at 25 µM, item O=C(Cc1cccc(C(F)(F)F)c1)NC(Cc1ccccc1)C(O)CN1CCN(Cc2ccccc2)CC1 (centres unmarked)
Reply | 3.15

Ask | Queued: N[C@@H](Cc1ccccc1)[C@@H](O)CNc1ccc(C(F)(F)F)cc1
Reply | 2.27

Ask | Try this molecule next: CC(C)(C)OC(=O)NC(Cc1ccccc1)C(O)CNc1cccc(C(F)(F)F)c1 (centres unmarked)
Reply | 2.26

Ask | Continue with CC(C)(C)c1ccc(NC[C@H](O)[C@@H](N)Cc2ccccc2)cc1
Reply | 2.34

Ask | Another: N[C@@H](Cc1ccccc1)[C@@H](O)CNc1ccc(OC(F)(F)F)cc1
Reply | 2.01

* * *

Give viability at 2.5 µM for every item shown.
- Test system: L. major axenic amastigotes
- Experimental Protocol: L. major axenic amastigote viability, resazurin reduction
- Measurement Context: Leishmania major, 72 h, read-out: Residual viability, L.major amastigote (2.5 µM)
Write it as a number; the unit % goes unstated.

Ask | Item under review: CC[C@@H](C)[C@H](c1nc2ccccc2n1Cc1cn(-c2ccc(C(F)(F)F)cc2)nn1)N1C(=O)c2ccccc2C1=O [PHT-39] . Reported viability at 2.5 µM?
Reply | 62.1

Ask | Now the same for CC[C@@H](C)[C@H](c1nc2ccccc2n1Cc1cn(-c2c(F)c(F)c(F)c(F)c2F)nn1)N1C(=O)c2ccc(C)cc2C1=O [PHT-80]
Reply | 50.9

Ask | // next record CC[C@@H](C)[C@H](c1nc2ccccc2n1Cc1cn(-c2c(F)c(F)c(F)c(F)c2F)nn1)N1C(=O)c2ccccc2C1=O [PHT-41]
Reply | 64.8

* * *

- Tested on: T. cruzi trypomastigotes
- Experimental Protocol: T. cruzi viability, resazurin reduction
- Format: cell-based, Trypanosoma cruzi
- Measurement Context: Trypanosoma cruzi, 25 µM; read-out: viability, T.cruzi (25 µM)
For each record, write down the corresponding viability at 25 µM.
Supply the numeric figure in %, leaving out any unit text.

Ask | What does the data say about its viability at 25 µM? Entry: O=C(CCc1ccc(Br)cc1)NC(Cc1ccccc1)C(O)CN1CCN(Cc2ccccc2)CC1 (stereo not shown) [LTC-10]
Reply | 21.5

Ask | Consider next the compound CC(=O)c1ccc(NC[C@H](O)[C@@H](N)Cc2ccccc2)cc1 [LTC-1031] in the same way.
Reply | 59.3

Ask | What would you report for Cc1ccc(NC[C@H](O)[C@@H](N)Cc2ccccc2)cc1 [LTC-1043] ?
Reply | 31.9

Ask | Moving on to N[C@@H](Cc1ccccc1)[C@@H](O)CNc1ccc(F)cc1 [LTC-1026]
Reply | 57.8

Ask | Also check CC(C)(C)OC(=O)NC(Cc1ccccc1)C(O)CNc1ccc(OC(F)(F)F)cc1 (stereo not shown) [LTC-1023]
Reply | 23.2

Ask | Entry to check: Cc1cccc(C)c1NC[C@H](O)[C@@H](N)Cc1ccccc1 [LTC-1041]
Reply | 57.2

Ask | Also N[C@@H](Cc1ccccc1)[C@@H](O)CNc1ccc(OC(F)(F)F)cc1 [LTC-1028] ?
Reply | 12.4

Ask | Now give it for O=C(Cc1cccc(C(F)(F)F)c1)NC(Cc1ccccc1)C(O)CN1CCN(Cc2ccccc2)CC1 (stereo not shown) [LTC-8] too.
Reply | 33.8

Ask | Subsequent entry: N[C@@H](Cc1ccccc1)[C@@H](O)CNc1ccc(C(F)(F)F)cc1 [LTC-1027]
Reply | 12

Ask | // repeat for N[C@@H](Cc1ccccc1)[C@@H](O)CNc1ccc(F)cc1F [LTC-1032] and report
Reply | 29

* * *

- Experimental Protocol: Cytotoxicity assay J774, resazurin reduction
- Assay type: cell-based, murine
- Measurement Context: mouse, J774 macrophage cells; 25 µM; read-out: viability, J774 (25 µM)
Value Type: viability at 72 h, 25 µM (%)
Answer with a number only, understood to be in %.

Ask | Return reported viability at 72 h, 25 µM; argument: CC(=O)c1ccc(NC[C@H](O)[C@@H](N)Cc2ccccc2)cc1 [LTC-1031]
Reply | -0.69

Ask | Next entry: N[C@@H](Cc1ccccc1)[C@@H](O)CNc1cccc(C(F)(F)F)c1 [LTC-1029]
Reply | 91.9

Ask | Now consider N[C@@H](Cc1ccccc1)[C@@H](O)CNc1ccc(F)cc1 [LTC-1026] and answer again.
Reply | -0.01

Ask | Now the same for CC(C)(C)OC(=O)NC(Cc1ccccc1)C(O)CNc1ccc(C(C)(C)C)cc1 (stereo not shown) [LTC-1035]
Reply | 95.4
